Form field: Dmax (one value per entry).
# assayed_system: BCL6 (Homo sapiens (Human), UniProt P41182)
# protocol_details: Immunofluorescence high content imaging of BCL6 degradation in T47D cells
# Type: cell-based
# measurement_parameters: T47D

A selection of reference data follows.
CCn1c(=O)c(OCC(=O)NC)cc2cc(Nc3nc(N4CCC(OC5CC6(C5)CN(c5ccc7c(c5)C(=O)N(C5CCC(=O)NC5=O)C7=O)C6)CC4)ncc3Cl)ccc21 (stereo not drawn) :: 50 to 70%
CNC(=O)COc1cc2cc(Nc3nc(N4CCN(CC5CCN(c6ccc(C(=O)NC7CCC(=O)NC7=O)c(OC)c6)CC5)CC4)ncc3Cl)ccc2n(C)c1=O (stereo not drawn) :: ≥ 70%
CNC(=O)COc1cc2cc(Nc3nc(N4CCOCC4)ncc3Cl)ccc2n(CCOc2ccc3c(c2)C(=O)N(C2CCC(=O)NC2=O)C3=O)c1=O (stereo not drawn) :: ≥ 70%
CC(=O)COc1cc2cc(Nc3nc(N4CCC(N5CCCC5COc5ccc6c(c5)C(=O)N(C5CCC(=O)NC5=O)C6=O)CC4)ncc3Cl)ccc2n(C)c1=O (stereo not drawn) :: < 50%
CNC(=O)COc1cc2cc(Nc3nc(N4CCC(O[C@H]5C[C@H](N6CCN(c7cccc8c7C(=O)N(C7CCC(=O)NC7=O)C8=O)CC6)C5)CC4)ncc3Cl)ccc2n(C(C)C)c1=O (stereo partly drawn) :: ≥ 70%

Q. Entry under review: CNC(=O)COc1cc2cc(Nc3nc(N4CCC(C5(N6CCC(c7cc(OC)cc(C(=O)NC8CCC(=O)NC8=O)c7F)CC6)CC5)CC4)ncc3Cl)ccc2n(C)c1=O (stereo not drawn) . Reported Dmax?
A. < 50%

----------
# assayed_system: BCL6 (Homo sapiens (Human))
# protocol_details: BCL6 TR-FRET assay (BCL6-Avitag-Biotin / BCoR-Cy5 peptide)
# Assay type: binding
# measurement_parameters: class symbols A-D; read-out: IC50 (nM)***
measure: IC50

Check out these entries, answers already filled in.
Cn1c(=O)n(CCC(C)(C)O)c2cc(Nc3nc(N4CCC(CN5CCN(c6ccc7c(c6)C(=O)N(C6CCC(=O)NC6=O)C7=O)CC5)CC4)ncc3Cl)ccc21 (stereo not drawn) :: ≥ 100 nM
CC(=O)COc1cc2cc(Nc3nc(N4CCC(C(=O)N5CCN(c6ccc7c(c6)C(=O)N(C6CCC(=O)NC6=O)C7=O)CC5)CC4)ncc3Cl)ccc2n(C)c1=O (stereo not drawn) :: 50 to 100 nM

Q. Lab request: please report IC50 under test system BCL6 (Homo sapiens (Human)) for CNC(=O)CCc1cc2cc(Nc3nc(N4CCC(CN5CCN(c6ccc7c(c6)C(=O)N(C6CCC(=O)NC6=O)C7=O)CC5)CC4)ncc3Cl)ccc2n(C)c1=O (stereo not drawn)
A. ≥ 100 nM

----------
# assayed_system: BCL6 (Homo sapiens (Human))
# protocol_details: Immunofluorescence high content imaging of BCL6 degradation in T47D cells
# Format: cell-based
Entries annotated with measured IC50

Consider the reported IC50 for these compounds:
CNC(=O)COc1cc2cc(Nc3nc(N4CCC(CN5CCN(c6ccc7c(c6)C(=O)N(C6CCC(=O)NC6=O)C7=O)CC5)CC4)ccc3Cl)ccc2n(C)c1=O (stereo not drawn) [compound 202] :: 50 to 100 nM
CC(=O)COc1cc2cc(Nc3nc(N4CCOC(COc5ccc6c(c5)C(=O)N(C5CCC(=O)NC5=O)C6=O)C4)ncc3Cl)ccc2n(C)c1=O (stereo not drawn) [compound 179] :: ≥ 100 nM
CNC(=O)COc1cc2cc(Nc3nc(N4CCC(OC5CCN(c6ccc7c(c6)C(=O)N(C6CCC(=O)NC6=O)C7=O)CC5)CC4)ncc3Cl)ccc2n(C)c1=O (stereo not drawn) [compound 221] :: < 10 nM
CNC(=O)COc1cc2cc(Nc3nc(N4CCC(CN5CCC(c6ccc7c(c6)C(=O)N(C6CCC(=O)NC6=O)C7=O)CC5)CC4)ncc3Cl)ccc2n(C)c1=O (stereo not drawn) [compound 289] :: 10 to 50 nM

Q. Could you share what IC50 was measured for CNC(=O)COc1cc2cc(Nc3nc(N4CCC(CN5CC6CC5CN6c5ccc6c(c5)C(=O)N(C5CCC(=O)NC5=O)C6=O)CC4)ncc3Cl)ccc2n(C)c1=O (stereo not drawn) [compound 204] , tested on BCL6 (Homo sapiens (Human))?
A. < 10 nM

Q. What reported IC50 corresponds to Cn1cc(-c2cc3cc(Nc4nc(N5CCC(CN6CCN(c7ccc8c(c7)C(=O)N(C7CCC(=O)NC7=O)C8=O)CC6)CC5)ncc4Cl)ccc3n(C)c2=O)cn1 (stereo not drawn) [compound 205] on BCL6 (Homo sapiens (Human))?
A. ≥ 100 nM

----------
# IC50 per entry
# assayed_system: UniProtKB P41182
# protocol_details: Immunofluorescence high content imaging of BCL6 degradation in T47D cells
# Assay type: cell-based
# measurement_parameters: T47D cells

CNC(=O)COc1cc2cc(Nc3nc(N4CCC(CN5CCC6(CC5)CN(c5cccc7c5CN(C5CCC(=O)NC5=O)C7=O)C6)CC4)ncc3Cl)ccc2n(C(C)C)c1=O (stereo not shown) :: < 10 nM
CNC(=O)COc1cc2cc(Nc3nc(N4CCC(OC5CC6(C5)CN(c5ccc7c(c5)C(=O)N(C5CCC(=O)NC5=O)C7=O)C6)CC4)ncc3Cl)ccc2n(C(C)C)c1=O (stereo not shown) :: < 10 nM
CNC(=O)COc1cc2cc(Nc3nc(N4CCC[C@H](COc5cccc6c5C(=O)N(C5CCC(=O)NC5=O)C6=O)C4)ncc3Cl)ccc2n(C2CCCCC2)c1=O (stereo partly shown) :: < 10 nM
CNC(=O)COc1cc2cc(Nc3nc(N4CCC(CN5CCC6(CC5)CN(c5ccc7c(c5)CN(C5CCC(=O)NC5=O)C7=O)C6)CC4)ncc3Cl)ccc2n(C(C)C)c1=O (stereo not shown) :: < 10 nM
CNC(=O)COc1cc2cc(Nc3nc(N4CCN(CC5CCN(C(=O)c6ccc(N7CCC(=O)NC7=O)c(OC)c6)CC5)CC4)ncc3Cl)ccc2n(C(C)C)c1=O :: ≥ 100 nM
CCCN(C1CCN(c2ccc3c(c2)C(=O)N(C2CCC(=O)NC2=O)C3=O)CC1)C1CCN(c2ncc(Cl)c(Nc3ccc4c(c3)cc(OCC(=O)NC)c(=O)n4C)n2)CC1 (stereo not shown) :: 10 to 50 nM

Q. Any idea what its IC50 is? The compound is CNC(=O)COc1cc2cc(Nc3nc(N4CCN(CC5CCN(c6cccc7c6CN(C6CCC(=O)NC6=O)C7=O)CC5)CC4)ncc3Cl)ccc2n(C(C)C)c1=O (stereo not shown)
A. < 10 nM

Q. Look up IC50 for this compound: CCN(C1CCN(c2ccc3c(c2)C(=O)N(C2CCC(=O)NC2=O)C3=O)CC1)C1CCN(c2ncc(Cl)c(Nc3ccc4c(c3)cc(OCC(=O)NC)c(=O)n4C)n2)CC1 (stereo not shown)
A. 10 to 50 nM

Q. GET /values?readout=IC50&item= CNC(=O)COc1cc2cc(Nc3nc(N4CCC(CN5CC6(CCN(c7cccc8c7C(=O)N(C7CCC(=O)NC7=O)C8=O)CC6)C5)CC4)ncc3Cl)ccc2n(C(C)C)c1=O (stereo not shown)
A. < 10 nM

----------
The compounds listed here are annotated with their IC50.
# assayed_system: BCL6 (Homo sapiens (Human), UniProt P41182)
# protocol_details: Immunofluorescence high content imaging of BCL6 degradation in T47D cells
# Assay type: cell-based

These solved cases illustrate the format of a correct answer.
CNC(=O)COc1cc2cc(Nc3nc(N4CCN(C(C)(C)C5CCN(c6cccc(C(=O)NC7CCC(=O)NC7=O)c6F)CC5)CC4)ncc3Cl)ccc2n(C)c1=O (centres unmarked) [compound 291] :: 10 to 50 nM
CNC(=O)COc1cc2cc(Nc3nc(N4CCN(CC5(O)CCN(c6ccc7c(c6)C(=O)N(C6CCC(=O)NC6=O)C7=O)CC5)CC4)ncc3Cl)ccc2n(C)c1=O (centres unmarked) [compound 240] :: 10 to 50 nM
CNC(=O)COc1cc2cc(Nc3nc(N4CCC(OC5CN(c6ccc7c(c6)C(=O)N(C6CCC(=O)NC6=O)C7=O)C5)CC4)ncc3Cl)ccc2n(C)c1=O (centres unmarked) [compound 227] :: < 10 nM

Q. Any idea what IC50 came out for CCn1c(=O)c(OCC(=O)NC)cc2cc(Nc3nc(N4CCN(CC5CCN(c6cccc7c6C(=O)N(C6CCC(=O)NC6=O)C7=O)CC5)CC4)ncc3Cl)ccc21 (centres unmarked) [compound 310] on BCL6 (Homo sapiens (Human), UniProt P41182)?
A. < 10 nM

Q. I'm curious: which IC50 was measured for CCn1c(=O)c(OCC(=O)NC)cc2cc(Nc3nc(N4CCN(C(C)(C)C5CCN(c6cccc7c6C(=O)N(C6CCC(=O)NC6=O)C7=O)CC5)CC4)ncc3Cl)ccc21 (centres unmarked) [compound 312] tested on BCL6 (Homo sapiens (Human), UniProt P41182)?
A. < 10 nM
